# EXPERIMENTAL_TARGET: Tubulin (Sus scrofa) (UniProt P02554+P02550)
# ASSAY_COMMENT: Displacement of [3H]colchicine from biotinylated porcine tubulin at 5 uM incubated for 2 hrs by competition scintillation proximity
# Type: protein assay
ASSAY_READOUT: inhibition (%)
Answer in %, number only, no unit symbol.

Would you please look over these solved cases?
[
  {
    "COMPOUND_STRUCTURE": "COc1ccc(/C=C\\c2cc(OC)c(OC)c(OC)c2)cc1O",
    "EXPERIMENTAL_TARGET": "Tubulin (Sus scrofa) (UniProt P02554+P02550)",
    "UNIT_OF_MEASUREMENT": "%",
    "inhibition": 92
  },
  {
    "COMPOUND_STRUCTURE": "COc1ccc(S(=O)(=O)Nc2cccnc2Nc2ccc(O)cc2)cc1",
    "EXPERIMENTAL_TARGET": "Tubulin (Sus scrofa) (UniProt P02554+P02550)",
    "UNIT_OF_MEASUREMENT": "%",
    "inhibition": 68
  },
  {
    "COMPOUND_STRUCTURE": "CCOc1cccc(Nc2nn(C)c3c2Cc2cc(OCC)c(OCC(N)=O)cc2-3)c1",
    "EXPERIMENTAL_TARGET": "Tubulin (Sus scrofa) (UniProt P02554+P02550)",
    "UNIT_OF_MEASUREMENT": "%",
    "inhibition": 67
  }
]

We now examine a further molecule.
I have this molecule here, CCOc1cccc(Nc2nn(C)c3c2Cc2cc(OCC)c(OCC(=O)NO)cc2-3)c1 , and I need its recorded inhibition.
63

----------
As shown below, each of these compounds has a reported log10(IC50) value.
# System: HepG2
# ASSAY_COMMENT: Growth inhibition of human HepG2 cells incubated for 72 hrs by MTT assay
# Format: functional, cell-based
# CONDITION_LABEL: HepG2, 72 h
Values reflect log10 of reported IC50 (nM).

Guide cases for log10(IC50), answers given:
[
  {
    "COMPOUND_STRUCTURE": "CCOc1cccc(Nc2nn(C)c3c2Cc2cc(OCC)c(OCC(=O)N(C)C)cc2-3)c1",
    "log10(IC50)": 2.96
  },
  {
    "COMPOUND_STRUCTURE": "CCOc1cccc(Nc2nn(C)c3c2Cc2cc(OCC)c(OCC(=O)NOC)cc2-3)c1",
    "log10(IC50)": 2.93
  },
  {
    "COMPOUND_STRUCTURE": "C#CCNC(=O)COc1cc2c(cc1OCC)Cc1c(Nc3cccc(OCC)c3)nn(C)c1-2",
    "log10(IC50)": 2.77
  },
  {
    "COMPOUND_STRUCTURE": "C=CCNC(=O)COc1cc2c(cc1OCC)Cc1c(Nc3cccc(OCC)c3)nn(C)c1-2",
    "log10(IC50)": 2.93
  },
  {
    "COMPOUND_STRUCTURE": "CCOc1cccc(Nc2nn(C)c3c2Cc2cc(OCC)c(OCC(=O)NCCOC)cc2-3)c1",
    "log10(IC50)": 2.65
  },
  {
    "COMPOUND_STRUCTURE": "CCOc1cccc(Nc2nn(C)c3c2Cc2cc(OCC)c(OCC(=O)NC)cc2-3)c1",
    "log10(IC50)": 2.15
  }
]

Entry CCOc1cccc(Nc2nn(C)c3c2Cc2cc(OCC)c(OCC(=O)NN)cc2-3)c1 , system HepG2: what log10(IC50) was measured?
2.60

What measured log10(IC50) is associated with COc1ccc(S(=O)(=O)Nc2cccnc2Nc2ccc(O)cc2)cc1 on HepG2?
2.65

Lab request: please report log10(IC50) under test system HepG2 for CCOc1cccc(Nc2nn(C)c3c2Cc2cc(OCC)c(OCC(N)=O)cc2-3)c1
1.41

Field: log10(IC50) (HepG2). Entry: COc1ccc(/C=C\c2cc(OC)c(OC)c(OC)c2)cc1O
0.32

What measured log10(IC50) is associated with CCOc1cccc(Nc2nn(C)c3c2Cc2cc(OCC)c(OCC(=O)NC4CC4)cc2-3)c1 on HepG2?
2.81

Give the reported log10(IC50) for CCOc1cccc(Nc2nn(C)c3c2Cc2cc(OCC)c(OCC(=O)NCC4CC4)cc2-3)c1 (system: HepG2).
3.23
